Values compiled from patent US7125891B2.

Where a name gives a salt, the structure may show the parent alone.
# melting point listing for each entry below

Record excerpt, results attached:
{"compound": "CCCc1cnc(C2Cc3ccccc3N2C(=O)C(C)N(C)C(=O)OC(C)C)[nH]1 (stereo not drawn)", "recorded.measurement": "77 to 80 °C"}
{"compound": "CCCc1nc(C2Cc3ccccc3N2C(C)=O)no1 (stereo not drawn)", "recorded.measurement": "93 to 94 °C"}

Query :: For CCCc1nc(C2Cc3ccccc3N2C(=O)CN)no1 (stereo not drawn) (as salt: trifluoroacetate) [Compound 90] , what is its reported melting point?
Result :: 160 to 162 °C

Query :: // repeat for CCc1cnc(C2Cc3ccccc3N2C(=O)Nc2ccccc2N)[nH]1 (stereo not drawn) (as salt: trifluoroacetate) and report
Result :: 106 to 108 °C

Query :: Can you check CCCc1cnc(C2Cc3ccccc3N2C(C)=O)[nH]1 (stereo not drawn) next?
Result :: 174 to 175 °C

Query :: Then what about the compound CCc1cnc(C2Cc3ccccc3N2C(=O)Nc2ccccc2[N+](=O)[O-])[nH]1 (stereo not drawn) ?
Result :: 208 to 209 °C
